Organism: Homo sapiens
Assay: Selectivity index, ratio of Ki for recombinant human furin expressed in drosophila S2 cells to Ki for recombinant human PACE4 expressed in drosophila S2 cells
Format: cell-based
Peptide text beside a SMILES is read from it. * marks the point of attachment. NH(4-amidinobenzyl) = N=C(N)c1ccc(CN*)cc1
Ratio Ki for assorted compounds
assay.readout: Ratio Ki

{"columns": ["compound", "measured"],
 "data": [
  ["CC(=O)N[C@@H](CC(C)C)C(=O)N[C@@H](CC(C)C)C(=O)N[C@@H](CO)C(=O)N[C@@H](CC(C)C)C(=O)N[C@@H](CCCNC(=N)N)C(=O)N[C@H](C(=O)N[C@@H](CCCCN)C(=O)NCc1ccc(C(=N)N)cc1)C(C)C (Ac-LLSLRVK-{NH(4-amidinobenzyl)})", 0.4],
  ["CC[C@H](C)[C@H](NC(=O)[C@H](CC(C)C)NC(=O)[C@H](CC(C)C)NC(=O)[C@H](CC(C)C)NC(C)=O)C(=O)N[C@@H](CCCNC(=N)N)C(=O)N[C@H](C(=O)N[C@@H](CCCCN)C(=O)NCc1ccc(C(=N)N)cc1)C(C)C (Ac-LLLIRVK-{NH(4-amidinobenzyl)})", 3.4],
  ["CC(=O)N[C@@H](CC(C)C)C(=O)N[C@@H](Cc1ccc(O)cc1)C(=O)N[C@@H](CC(C)C)C(=O)N[C@@H](CC(C)C)C(=O)N[C@@H](CCCNC(=N)N)C(=O)N[C@H](C(=O)N[C@@H](CCCCN)C(=O)NCc1ccc(C(=N)N)cc1)C(C)C (Ac-LYLLRVK-{NH(4-amidinobenzyl)})", 0.8],
  ["CC(=O)N[C@H](C(=O)N[C@@H](CC(C)C)C(=O)N[C@@H](CC(C)C)C(=O)N[C@@H](CC(C)C)C(=O)N[C@@H](CCCNC(=N)N)C(=O)N[C@H](C(=O)N[C@@H](CCCCN)C(=O)NCc1ccc(C(=N)N)cc1)C(C)C)[C@@H](C)O (Ac-TLLLRVK-{NH(4-amidinobenzyl)})", 0.6]
]}
